System: CU-ACC1
Assay: area under concentration-response curve (viability) (AUC (a.u.)); higher = less active
Conditions: 48 h
Please provide measured area under concentration-response curve for the entries that follow.

# input Can you look up area under concentration-response curve on CU-ACC1 for "COC1=C(CN(C)C)C=C(OC)C(=C1)C/2=C/N(C)C(=O)C3=C2C=CN=C3" ?
# output 516

# input Now this one: "Cn1cc(-c2cnn3c(N)c(Br)c([C@@H]4CCCNC4)nc23)cn1"
# output 483

# input Now this one: "CC[N+](CC)(CC)CCOc1cccc(OCC[N+](CC)(CC)CC)c1OCC[N+](CC)(CC)CC"
# output 412

# input Now this one: "CN[C@@H](C)[C@H]1[C@H](O)C[C@@]2(C)[C@@H]3CC[C@H]4C(C)(C)[C@@H](NC)CC[C@@]45C[C@@]35CC[C@]12C"
# output 546

# input Now this one: "COC1=C(OC)C=C2C(=C1)C(=O)N(CCCN3CCOCC3)\C4=C2\C(=O)C5=C4C=C6OCOC6=C5"
# output 400

# input Now this one: "CC(C)c1cc(C(C)C)c(CC(=O)N[S+](=O)([O-])Oc2c(C(C)C)cccc2C(C)C)c(C(C)C)c1"
# output 456

# input Now this one: "CC(=O)Nc1ccc(C(=O)Nc2ccccc2N)cc1"
# output 413

# input Now this one: "C[C@@H]1[C@H]\2[C@H](O)[C@H]3[C@H](N(C)C)\C(=C(C(N)=O)/C(=O)[C@@]3(O)\C(=C2C(=O)C4=C(O)C=CC=C14)O)O"
# output 406

# input Now this one: "ClC1=CC=C2N/C3=N/C(=O)CN3CC2=C1Cl"
# output 519

# input Now this one: "N#CCC1(n2cc(-c3ncnc4[nH]ccc34)cn2)CN(C2CCN(C(=O)c3ccnc(C(F)(F)F)c3F)CC2)C1"
# output 460

# input Now this one: "O=C(CCCCCCC(=O)Nc1ccccc1)NO"
# output 415

# input Now this one: "CCCCC(F)(F)[C@@]1(O)CC[C@H]2[C@@H](CC(=O)[C@@H]2CCCCCCC(=O)O)O1"
# output 494

# input Now this one: "Cc1cccc(-c2nn(C(=S)Nc3ccccc3)cc2-c2ccnc3ccccc23)n1"
# output 506

# input Now this one: "C=CCc1cccc(/C=N/NC(=O)CN2CCN(Cc3ccccc3)CC2)c1O"
# output 523

# input Now this one: CC(C)Cc1ccc(C(C)C(=O)O)cc1 (stereo not drawn)
# output 539

# input Now this one: "CC1=C(C)C\2=C(S1)[N]3C(=NN=C3[C@H](CC(N)=O)\N=C2C4=CC=C(Cl)C=C4)C"
# output 516

# input Now this one: "CN1CC[C@H]([C@@H](O)C1)C2=C(O)C=C(O)C3=C2O\C(=C/C3=O)C4=CC=CC=C4Cl"
# output 346

# input Now this one: "Clc1ccccc1CN1CCc2sccc2C1"
# output 510
